src = PubChem BioAssay (NCI)

Entries and their measured growth follow.
# Test system: TK-10 renal
# testMethodNotes: NCI-60 one-dose screen, 48 h (100 = growth as untreated, 0 = no growth, -100 = all killed)
# cond: 10 µM unless noted
This is part of a sample that, as a whole, favours compounds with a hit. Of some 83,000 tested, about 20% had one in any assay.
Give just the number in %; leave the unit off.

compound	endpointUnit	growth
CN1NC(c2ccccc2)NN(C)C1=O	%	114
CCOC(=O)C1=C(c2ccccc2)NC(=O)NC1CN1C(=O)c2ccccc2C1=O (stereo not drawn)	%	111

Prompt: Query: growth; subject: c1cc[c]([Bi]([c]2ccccc2)[c]2ccccc2)cc1
Response: 94.6

----------
# Test system: OVCAR-5 ovarian
# testMethodNotes: NCI-60 one-dose screen, 48 h (100 = growth as untreated, 0 = no growth, -100 = all killed)
# cond: 10 µM unless noted
About 83,000 compounds went through this panel and 20% of them were active in at least one assay; those are over-represented in the sample as a whole.
valueKind: growth (%)
Give just the number in %; leave the unit off.

compound	growth (%)
Cc1ccnc2c(NC(C)CCCN)cc(O)c(O)c12 (stereo not drawn)	79.7

Prompt: Query: growth; subject: COc1cc(NC(C)CCCN)c2nc(C)ccc2c1OC (stereo not drawn)
Response: 95.6

Prompt: Same question for COc1ccc(-c2nc(SCC(C)C)nc(Nc3ccc(C)cc3)c2C#N)cc1 please.
Response: 86.4

----------
# Test system: HS 578T breast
# testMethodNotes: NCI-60 one-dose screen, 48 h
# cond: 10 µM unless noted
The panel holds about 83,000 compounds, 20% with a hit somewhere; the sample as a whole holds those more often. Activity calls are given as the source filed them. Rule for the calls: active = growth percent below 10; inactive = the rest.
Returns: one label drawn from true (1) (active), false (0) (inactive)

The examples below pair each entry with its known result.
compound	targetOrTestSystem	class
CC([C@H]1CCC2C3CCC4C[C@@H](N)CC[C@]4(C)C3CC[C@@]21C)N(C)C (stereo partly specified)	HS 578T breast	false (0)
COc1cc2c(c(OC)c1OC)C(=O)CC(c1cccc(C(=O)Nc3cccc(Br)c3)c1)O2 (stereo unspecified)	HS 578T breast	false (0)
CC(=O)c1nn(-c2ccc(C)cc2)cc1C(=O)c1cc2c(ccc3ccccc32)oc1=O	HS 578T breast	false (0)
O=C1Nc2ccccc2/C1=C/c1cn(CC(O)Cn2cc(/C=C3\C(=O)Nc4ccccc43)c3ccccc32)c2ccccc12 (stereo unspecified)	HS 578T breast	true (1)
Cc1c(Cc2ccccc2)c(=O)oc2c(C)c(OCC(=O)n3nc(C#N)cc3N)ccc12	HS 578T breast	false (0)

Next, consider the following compound.
Prompt: How was O=C(CCl)NC1c2ccccc2Oc2ccccc21 classified in this test?
Response: false (0)

----------
# System: UACC-257 melanoma
# testMethodNotes: NCI-60 one-dose screen, 48 h (100 = growth as untreated, 0 = no growth, -100 = all killed)
# cond: 10 µM unless noted
Compounds without any hit were thinned out: in the full panel of roughly 83,000, 20% have a hit.
valueKind: growth (%)
Give just the number in %; leave the unit off.

Recorded growth, per entry:
molecule	targetOrTestSystem	endpointUnit	growth
c1ccc(Nc2ncc3c(n2)-c2cccn2CC3)cc1	UACC-257 melanoma	%	124
CCOC(=O)/C(C#N)=C(/CC)OCC	UACC-257 melanoma	%	99.9

Prompt: Query: growth; subject: O=C(/C=C/c1ccc(Cl)cc1)c1ccc(Cl)cc1
Response: 103

Prompt: Same question for CC[C@H](Nc1ncnc2nc[nH]c12)c1nc2cccc(NCc3ccc(C(=O)NO)o3)c2c(=O)n1-c1ccccc1 please.
Response: 102

Prompt: Same question for COc1ccc(-c2cn3ccnc3c(-c3ccc4ncn(C5CCCCC5)c4c3)n2)cc1 please.
Response: 73.7

Prompt: Same question for CC(C)(C)C(=O)OCOP(=O)(OCOC(=O)C(C)(C)C)C1CC(O)N(O)C1=O (stereo not given) please.
Response: 63.1

Prompt: Same question for COc1ccc(C(=O)N2N=C(c3ccc(Br)cc3)CC2c2cn(-c3ccccc3)nc2-c2ccccc2)cc1 (stereo not given) please.
Response: 79.6

Prompt: Same question for Oc1ccccc1/C=N/N=C/c1c(O)ccc2ccccc12 please.
Response: 98.2

Prompt: Same question for O=C(N/N=C\c1ccc(Cl)cc1)C(=O)N/N=C\c1ccc(Cl)cc1 please.
Response: 108

Prompt: Same question for O=C(/C=C1\C(=O)N(Cc2ccccc2)c2ccccc21)c1ccc(OCCN2CCCCC2)cc1 please.
Response: 76.8

Prompt: Same question for COc1ccc(-c2nc(SCC(C)C)nc(Nc3ccc(C)cc3)c2C#N)cc1 please.
Response: 103

----------
# Tested on: PC-3 prostate
# testMethodNotes: NCI-60 one-dose screen, 48 h (100 = growth as untreated, 0 = no growth, -100 = all killed)
# cond: 10 µM unless noted
Compounds without any hit were thinned out: in the full panel of roughly 83,000, 20% have a hit.
Assign class by growth: not lower than 70% means satisfied; lower than 70% means not satisfied.

molecule	targetOrTestSystem	class
NNC(=S)N1N=C(c2cc3ccccc3o2)CC1c1c[nH]c2ccccc12 (stereo not given)	PC-3 prostate	not satisfied
COc1ccc2c(c1)/C(=C/c1c(-c3cc(OC)c(OC)c(OC)c3)nc3sccn13)C(=O)N2	PC-3 prostate	satisfied
Cc1ccc(CC(=O)O)c(C)c1	PC-3 prostate	satisfied
CCCCCSc1ccc2nc(NC(=O)OCC)sc2c1	PC-3 prostate	not satisfied
O=C1Nc2ccccc2/C1=C/c1cn(CC(O)Cn2cc(/C=C3\C(=O)Nc4ccccc43)c3ccccc32)c2ccccc12 (stereo not given)	PC-3 prostate	not satisfied

Prompt: Record C=C(C)C(C(=O)OCC)(C(=O)OCC)C(C)C ; criterion: growth no lower than 70%. Met?
Response: satisfied

Prompt: Same question for COc1ccc(C2=NN(C(=O)c3cc(-c4ccc(C)cc4)nc4ccccc34)C(c3cc(-c4ccccc4)nn3-c3ccccc3)C2)cc1 (stereo not given) please.
Response: satisfied

----------
Entries and their measured growth follow.
# Test system: HCC-2998 colon
# testMethodNotes: NCI-60 one-dose screen, 48 h (100 = growth as untreated, 0 = no growth, -100 = all killed)
# cond: 10 µM unless noted
About 83,000 compounds went through this panel and 20% of them were active in at least one assay; those are over-represented in the sample as a whole.
Give just the number in %; leave the unit off.

molecule	readoutValue
COc1cc2c(cc1OC)C(Cc1cc(OC)c(OC)cc1[N+](=O)[O-])=NCC2	89.5
COc1cccc(CNC(=O)c2cccc(C3CC(=O)c4c(cc(OC)c(OC)c4OC)O3)c2)c1 (stereo not drawn)	95.2
CCOC(=O)c1cc(-c2ccc(OC)cc2)[nH]c1NNC(=O)CCOC	122
COc1cc(CCNc2cnc3cc(N)cc(N)c3n2)cc(OC)c1	139
CCOC(=O)C1=C(c2ccccc2)NC(=O)NC1CN1C(=O)c2ccccc2C1=O (stereo not drawn)	62.9

Prompt: Query: growth; subject: c1ccc(-c2cn3ccnc3c(-c3ccc4ncn(C5CCCCC5)c4c3)n2)cc1
Response: 103

Prompt: Same question for c1cc[c]([Bi]([c]2ccccc2)[c]2ccccc2)cc1 please.
Response: 96.5

Prompt: Same question for CC1(C)C(O)NC(Cl)=C(C#N)C1(C#N)C#N (stereo not drawn) please.
Response: 90.4

Prompt: Same question for CCc1c(C)c2ccc(OCC(=O)N=Nc3c(O)[nH]c4ccccc34)c(C)c2oc1=O please.
Response: -2.02

Prompt: Same question for O=C(/C=C\c1ccc(NCc2ccc(C(=O)O)cc2)cc1)CCl please.
Response: 97.5

Prompt: Same question for CCCCCCCCc1ccc(CCC(N)(CO)CO)cc1 please.
Response: -85.6

Prompt: Same question for COc1ccc(/C=C2\CCCC3=C2N=C2SC=NN2C3c2ccc(OC)c(OC)c2)cc1OC (stereo not drawn) please.
Response: 57.1

Prompt: Same question for CCCC(C)c1cc(Cc2cc(Cl)cc(Cl)c2O)c(O)c(Cc2cc(Cl)cc(Cl)c2O)c1 (stereo not drawn) please.
Response: 8.08

----------
# Tested on: OVCAR-8 ovarian
# testMethodNotes: NCI-60 one-dose screen, 48 h (100 = growth as untreated, 0 = no growth, -100 = all killed)
# cond: 10 µM unless noted
Compounds without any hit were thinned out: in the full panel of roughly 83,000, 20% have a hit. Active and inactive are the calls of the source. How the source made its calls: active means growth percent below 10; inactive means the rest.
Entries and their measured growth follow.

compound	readoutValue
C=C(C)[C@@H]1CC[C@]2(COC(=O)c3ccccc3C(=O)O)CC[C@]3(C)[C@H](CC[C@@H]4[C@@]5(C)CCCNC(C)(C)[C@@H]5CC[C@]43C)[C@@H]12	70.5% (inactive)
COc1cc2ncnc(-n3ncc4cc(NC(=O)Nc5ccc(Cl)c(Cl)c5)ccc43)c2cc1OC	2.71% (active)
COC(=O)C(C(=O)OC)C(Br)C(Br)C(Br)c1ccccc1 (stereo unspecified)	91.8% (inactive)

Prompt: Query: growth; subject: Cc1ccc2c(O)c(O)cc(NC(C)CCCN)c2n1 (stereo unspecified)
Response: 30.7% (inactive)

Prompt: Same question for CCCCCCNC(=O)Oc1ccc(/C(=C(/C)Cc2ccc(OC)cc2)c2ccc(OCCN(C)C)cc2)cc1 please.
Response: 69.9% (inactive)

Prompt: Same question for CCN(CC)CCOC(=O)c1cccnc1 please.
Response: 97.6% (inactive)
